system-name: recombinant human MGAT2 enzyme (Homo sapiens, UniProt Q3SYC2)
Construct: made in house; host or cells: CHO-K1 (Jump-In CHO-K1 Kit, Life Technologies); microsomal fraction used as the enzyme solution
Sequence (Q3SYC2 whole entry): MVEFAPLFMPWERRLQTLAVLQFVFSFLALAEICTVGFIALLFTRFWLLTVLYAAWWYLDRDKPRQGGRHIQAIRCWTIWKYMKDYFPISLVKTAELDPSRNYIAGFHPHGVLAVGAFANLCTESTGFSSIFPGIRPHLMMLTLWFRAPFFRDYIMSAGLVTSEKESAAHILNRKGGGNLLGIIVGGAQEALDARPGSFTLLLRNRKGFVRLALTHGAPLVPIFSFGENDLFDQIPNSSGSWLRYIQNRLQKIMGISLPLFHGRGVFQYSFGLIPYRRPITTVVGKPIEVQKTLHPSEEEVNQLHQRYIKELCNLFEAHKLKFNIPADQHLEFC
assay-protocol: Test for human MGAT2 activity inhibitory action (14C-oleoyl CoA, recombinant enzyme microsomes)
Type: biochemical
cond: IC50 (nM), First Test (Table 3)
Description: The human MGAT2 gene described in Am. J. Physiol. Endocrinol. Metab. 285: E927-E937, 2003 was expressed using Jump-In™ CHO-K1 Kit (Life technologies) as described in the attached manual. […] After 30 minutes, the reaction was stopped by adding 300 μl of isopropanol:heptane:water=(80:20:2) to the reaction liquid. […] Then, the ^14C count was quantitatively determined using TopCount NXT™ microplate scintillation luminescence counter (Perkin Elmer). […]
Counter-ions that a name gives are not always drawn.
assay-metric: IC50 (nM)

> print(dat)
                                   compound  measured.result
1  O=C(CNCCCCCOc1ccc(C(F)(F)F)cc1)N1CCc2nc(SC3CCC3)n(-c3ccccc3)c(=O)c2C1 [Example 5, trifluoroacetate]             0.64

----------
system-name: recombinant human MGAT2 enzyme (Homo sapiens, UniProt Q3SYC2)
Construct: made in house; host or cells: CHO-K1 (Jump-In CHO-K1 Kit, Life Technologies); microsomal fraction used as the enzyme solution
assay-protocol: Test for human MGAT2 activity inhibitory action (14C-oleoyl CoA, recombinant enzyme microsomes)
Assay type: biochemical
cond: Second Test (Table 4); read-out: IC50
Description: The human MGAT2 gene described in Am. J. Physiol. Endocrinol. Metab. 285: E927-E937, 2003 was expressed using Jump-In™ CHO-K1 Kit (Life technologies) as described in the attached manual. […] After 30 minutes, the reaction was stopped by adding 300 μl of isopropanol:heptane:water=(80:20:2) to the reaction liquid. […] Then, the ^14C count was quantitatively determined using TopCount NXT™ microplate scintillation luminescence counter (Perkin Elmer). […]
Structures can show the parent of a compound that is named as a salt.
Let's look at some molecules and their measured IC50.
assay-metric: IC50 (nM)

> print(dat)
                                   molecule  measured.result
1  O=C(CCNCc1ccc(OC(F)(F)F)cc1)N1CCc2nc(SC3CCC3)n(-c3ccccc3)c(=O)c2C1              1.4
2  O=C(CCNCc1ccccc1)N1CCc2nc(SC3CCC3)n(CC3CCC3)c(=O)c2C1 [Example 12, trifluoroacetate]              1.4
3  O=C(CCNCc1ccccc1)N1CCc2nc(SC3CCC3)n(C3CCCC3)c(=O)c2C1 [Example 15, trifluoroacetate]              2.4
4  O=C(CCNCc1ccsc1)N1CCc2nc(SC3CCC3)n(-c3ccccc3)c(=O)c2C1              1.8
5  O=C(CCNCc1cc2ccccc2[nH]1)N1CCc2nc(SC3CCC3)n(-c3ccccc3)c(=O)c2C1 [Example 21, trifluoroacetate]              1.2
6  O=C(CCNCCc1c[nH]c2ccccc12)N1CCc2nc(SC3CCC3)n(-c3ccccc3)c(=O)c2C1              1.6
7  O=C(CCNCc1ccccc1)N1CCc2nc(SC3CCC3)n(Cc3ccco3)c(=O)c2C1 [Example 14, trifluoroacetate]              4.7

----------
system-name: recombinant human MGAT2 enzyme (Homo sapiens)
Construct: made in house; host or cells: CHO-K1 (Jump-In CHO-K1 Kit, Life Technologies); microsomal fraction used as the enzyme solution
assay-protocol: Test for human MGAT2 activity inhibitory action (14C-oleoyl CoA, recombinant enzyme microsomes)
Type: biochemical
cond: Table 5, Examples 25 to 60, same method; read-out: IC50
Where a name gives a salt, the structure may show the parent alone.
Let's look at some compounds and their measured IC50.

compound	readout-units	IC50
O=C(CCNCc1ccc2c(c1)CCO2)N1CCc2nc(SC3CCC3)n(-c3ccccc3)c(=O)c2C1 [Example 32, trifluoroacetate]	nM	1.3
O=C(CNCCOc1ccc(F)cc1)N1CCc2nc(SC3CCC3)n(-c3ccccc3)c(=O)c2C1 [Example 51, trifluoroacetate]	nM	4.2
O=C(CCNCCCCCOc1ccc(C(F)(F)F)cc1)N1CCc2nc(SC3CCC3)n(-c3ccccc3)c(=O)c2C1 [Example 33, trifluoroacetate]	nM	0.8
CN(C)c1ccc(CNCCC(=O)N2CCc3nc(SC4CCC4)n(-c4ccccc4)c(=O)c3C2)cc1 [Example 31, trifluoroacetate]	nM	1.6
[2H]c1c([2H])c([2H])c(C([2H])([2H])NCCC(=O)N2CCc3nc(SC4CCC4)n(-c4ccccc4)c(=O)c3C2)c([2H])c1[2H] [Example 25, trifluoroacetate]	nM	2.2
O=C(CCNCC(O)COc1ccc(Cl)cc1)N1CCc2nc(SC3CCC3)n(-c3ccccc3)c(=O)c2C1 (stereo not drawn) [Example 45, trifluoroacetate]	nM	1.3

----------
Let's look at some compounds and their measured IC50.
system-name: recombinant human MGAT2 enzyme (Homo sapiens)
Construct: made in house; host or cells: CHO-K1 (Jump-In CHO-K1 Kit, Life Technologies); microsomal fraction used as the enzyme solution
assay-protocol: Test for human MGAT2 activity inhibitory action (14C-oleoyl CoA, recombinant enzyme microsomes)
Format: biochemical
cond: Second Test (Table 4); read-out: IC50
Counter-ions that a name gives are not always drawn.
assay-metric: IC50 (nM)

> print(dat)
                                   compound                               system.name  readout.units  measured.result
1  [2H]c1c([2H])c([2H])c(-n2c(SC3CCC3)nc3c(c2=O)CN(C(=O)CCNCc2ccccc2)CC3)c([2H])c1[2H] [Example 11, trifluoroacetate]  recombinant human MGAT2 enzyme (Homo sapiens)             nM              1.8
2  O=C(CCCNCc1ccc(C(F)(F)F)cc1)N1CCc2nc(SC3CCC3)n(-c3ccccc3)c(=O)c2C1 [Example 22]  recombinant human MGAT2 enzyme (Homo sapiens)             nM              3.8
3  O=C(CCNCc1ccccc1)N1CCc2nc(SC3CCC3)n(C[C@H]3CCCO3)c(=O)c2C1 [Example 13, trifluoroacetate]  recombinant human MGAT2 enzyme (Homo sapiens)             nM              6.9
4  COc1ccc(CNc2nc3c(c(=O)n2-c2ccccc2)CN(C(=O)Nc2ccc(C(F)(F)F)cc2)CC3)cc1 [Comparative Example 1, reference compound]  recombinant human MGAT2 enzyme (Homo sapiens)             nM              303
5  O=C(CCNCc1csc2ccccc12)N1CCc2nc(SC3CCC3)n(-c3ccccc3)c(=O)c2C1 [Example 20, trifluoroacetate]  recombinant human MGAT2 enzyme (Homo sapiens)             nM                1
6  O=C(CCNCc1ccc(C(F)(F)F)cc1)N1CCc2nc(SC3CCC3)n(-c3ccccc3)c(=O)c2C1 [Example 19, trifluoroacetate]  recombinant human MGAT2 enzyme (Homo sapiens)             nM              0.9
7  O=C(CCNCc1ccccc1F)N1CCc2nc(SC3CCC3)n(-c3ccccc3)c(=O)c2C1 [Example 18]  recombinant human MGAT2 enzyme (Homo sapiens)             nM              2.3
8  COc1ccccc1CNCCC(=O)N1CCc2nc(SC3CCC3)n(-c3ccccc3)c(=O)c2C1 [Example 17, trifluoroacetate]  recombinant human MGAT2 enzyme (Homo sapiens)             nM              2.1

----------
system-name: recombinant human MGAT2 enzyme (Homo sapiens, UniProt Q3SYC2)
Construct: made in house; host or cells: CHO-K1 (Jump-In CHO-K1 Kit, Life Technologies); microsomal fraction used as the enzyme solution
assay-protocol: Test for human MGAT2 activity inhibitory action (14C-oleoyl CoA, recombinant enzyme microsomes)
Format: biochemical
cond: Table 5, Examples 25 to 60, same method; read-out: IC50
Counter-ions that a name gives are not always drawn.
assay-metric: IC50 (nM)

> print(dat)
                                    compound  value.prefix  measured.result
 1  Cc1cc2cccc(CNCCC(=O)N3CCc4nc(SC5CCC5)n(-c5ccccc5)c(=O)c4C3)c2o1 [Example 26, trifluoroacetate]             =                1
 2  O=C(CCNCCCCOc1ccc(F)cc1)N1CCc2nc(SC3CCC3)n(-c3ccccc3)c(=O)c2C1 [Example 48, trifluoroacetate]             <                1
 3  O=C(CCNCC(O)c1ccccc1)N1CCc2nc(SC3CCC3)n(-c3ccccc3)c(=O)c2C1 (stereo not shown) [Example 29, trifluoroacetate]             =              1.5
 4  O=C(CCNCCc1ccc(O)cc1)N1CCc2nc(SC3CCC3)n(-c3ccccc3)c(=O)c2C1 [Example 30, trifluoroacetate]             =                3
 5  O=C(CNCCCCCNc1ccc(C(F)(F)F)cc1)N1CCc2nc(SC3CCC3)n(-c3ccccc3)c(=O)c2C1 [Example 55, trifluoroacetate]             <                1
 6  CC(C)[C@H](CNCCC(=O)N1CCc2nc(SC3CCC3)n(-c3ccccc3)c(=O)c2C1)Nc1ccc(Cl)cc1 [Example 40, trifluoroacetate]             =              0.7
 7  O=C(CCNCc1nnc(Cc2ccc(C(F)(F)F)cc2)o1)N1CCc2nc(SC3CCC3)n(-c3ccccc3)c(=O)c2C1             =              5.8
 8  O=C(CCNCCCCCOc1ccc(F)cc1)N1CCc2nc(SC3CCC3)n(-c3ccccc3)c(=O)c2C1 [Example 49, trifluoroacetate]             <                1
 9  O=C(CCNCc1ccc2c(c1)OCO2)N1CCc2nc(SC3CCC3)n(-c3ccccc3)c(=O)c2C1 [Example 28, trifluoroacetate]             =              1.7
10  O=C(CCNCC1CCCC(C(F)(F)F)C1)N1CCc2nc(SC3CCC3)n(-c3ccccc3)c(=O)c2C1 (stereo not shown) [Example 39, trifluoroacetate]             =              0.4
11  C[C@@H](CNCCC(=O)N1CCc2nc(SC3CCC3)n(-c3ccccc3)c(=O)c2C1)c1ccccc1             =              0.7
12  C[C@@H](NCCC(=O)N1CCc2nc(SC3CCC3)n(-c3ccccc3)c(=O)c2C1)c1ccccc1 [Example 41, trifluoroacetate]             =              1.1
13  O=C(CCNCC#CCOc1ccc(C(F)(F)F)cc1)N1CCc2nc(SC3CCC3)n(-c3ccccc3)c(=O)c2C1 [Example 59, trifluoroacetate]             =              2.2
